Origin of measurements: PubChem BioAssay AID1240

# Measured On: Bcl-2-like protein 10 (Homo sapiens) (UniProt Q9HD36)
# Sequence (Q9HD36 whole entry, looked up): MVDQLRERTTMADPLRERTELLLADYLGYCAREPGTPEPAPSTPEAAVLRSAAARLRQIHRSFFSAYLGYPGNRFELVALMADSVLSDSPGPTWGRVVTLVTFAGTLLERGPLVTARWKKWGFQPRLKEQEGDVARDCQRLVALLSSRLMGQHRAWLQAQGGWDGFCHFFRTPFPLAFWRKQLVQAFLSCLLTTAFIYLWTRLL
# Experimental Protocol: TR3 peptide-Bcl-B binding displacers, biochemical primary FP assay, phenotype converters (AID 1240);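 further: 0% = Bcl-B with tracer peptide and DMSO and 100% = tracer peptide lacking Bcl-B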
# Run Conditions: GST-Bcl-B / FITC-TR3 peptide fluorescence polarization; stronger effect = higher value; compound at 3.75 mg/L
Screen size: about 50,000 compounds; about 800 (1.6%) showed an effect of 50% or more. The sample as a whole holds a higher share of strong results than the screen did.

- Molecule: "O=Cc1cn(-c2ccccc2)nc1-c1ccc(Cl)cc1"
  Measured On: "Bcl-2-like protein 10 (Homo sapiens) (UniProt Q9HD36)"
  Output Unit: "%"
  displacement: 7.5
- Molecule: "O=C(O)CCCN1C(=O)/C(=C\\c2ccc(-c3ccc(Br)cc3)o2)SC1=S"
  Measured On: "Bcl-2-like protein 10 (Homo sapiens) (UniProt Q9HD36)"
  Output Unit: "%"
  displacement: -65.6
- Molecule: "Cc1ccc(-n2nc3cc(C)c(NC(=O)c4ccco4)cc3n2)cc1"
  Measured On: "Bcl-2-like protein 10 (Homo sapiens) (UniProt Q9HD36)"
  Output Unit: "%"
  displacement: 107
- Molecule: "Cc1ccc(-n2nc3cc(C)c(NC(=O)c4ccccc4)cc3n2)cc1"
  Measured On: "Bcl-2-like protein 10 (Homo sapiens) (UniProt Q9HD36)"
  Output Unit: "%"
  displacement: -4.4
- Molecule: "O=C(Nc1ccc(OC(F)(F)F)cc1)c1cccc([N+](=O)[O-])c1"
  Measured On: "Bcl-2-like protein 10 (Homo sapiens) (UniProt Q9HD36)"
  Output Unit: "%"
  displacement: -1.6
- Molecule: "Cc1cc(-n2cc(C=O)c(-c3ccccc3)n2)nc2ccccc12"
  Measured On: "Bcl-2-like protein 10 (Homo sapiens) (UniProt Q9HD36)"
  Output Unit: "%"
  displacement: 75.4

###

# Measured On: Bcl-2-like protein 10 (Homo sapiens)
# Experimental Protocol: TR3 peptide-Bcl-B binding displacers, biochemical primary FP assay, phenotype converters (AID 1240);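 further: 0% = Bcl-B with tracer peptide and DMSO and 100% = tracer peptide lacking Bcl-B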
# Run Conditions: GST-Bcl-B / FITC-TR3 peptide fluorescence polarization; stronger effect = higher value; compound at 3.75 mg/L
Hit rate of the full screen: of about 50,000 compounds, about 800 (1.6%) showed an effect of 50% or more. This excerpt belongs to a sample that is enriched for strong results.

- Molecule: "O=C1NC(=S)N/C1=C/c1cccc(O)c1"
  displacement: "-6.7%"
- Molecule: "COc1ccc(CN(C)C(=O)c2cccc(C(=O)N(C)Cc3ccc(OC)cc3)c2)cc1"
  displacement: "10.7%"
- Molecule: "CCOC(=O)C1=C(C)NC(=O)CC1c1cc2c(cc1Br)OCO2 (stereo not given)"
  displacement: "-6.4%"
- Molecule: "CC(C)CC(NC(=O)c1ccccc1)C(=O)OCC(=O)N1c2ccccc2Sc2ccccc21 (stereo not given)"
  displacement: "9.1%"
- Molecule: "COc1ccc(C(=O)Nc2cc3nn(-c4ccc(OC)cc4)nc3cc2C)cc1"
  displacement: "2.2%"
- Molecule: "CCN(CC)CCNc1nc2nonc2nc1NCCN(CC)CC"
  displacement: "-0.5%"
- Molecule: "Cc1ccc(-n2nc3ccc(NC(=O)c4ccco4)cc3n2)cc1"
  displacement: "49.3%"
- Molecule: "Cc1ccc(-n2nc3cc(C)c(NC(=O)c4cccc(C)c4)cc3n2)cc1"
  displacement: "85.1%"
- Molecule: "CCOc1cc(/C=C2\\C(=O)NC(=O)N(c3cc(C)cc(C)c3)C2=O)cc(Cl)c1O"
  displacement: "11.4%"
- Molecule: "COc1ccc(-n2nc3cc(C)c(NC(=O)c4cc5ccccc5o4)cc3n2)cc1"
  displacement: "2.4%"

###

# Measured On: Bcl-2-like protein 10 (Homo sapiens) (UniProt Q9HD36)
# Experimental Protocol: TR3 peptide-Bcl-B binding displacers, biochemical primary FP assay, phenotype converters (AID 1240);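 further: 0% = Bcl-B with tracer peptide and DMSO and 100% = tracer peptide lacking Bcl-B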
# Run Conditions: GST-Bcl-B / FITC-TR3 peptide fluorescence polarization; stronger effect = higher value; compound at 3.75 mg/L
About 800 (1.6%) of roughly 50,000 compounds showed an effect of 50% or more. This excerpt belongs to a sample that is enriched for strong results.
Mark Met for reported displacement of 10% or greater; mark Not met for anything smaller.

- Molecule: "Cc1ccc(C(C)C)c(OCC(=O)Nc2ccc(NC(=O)c3ccccc3Cl)cc2)c1"
  Class Assignment: "Not met"
- Molecule: "O=C(Nc1cccnc1)c1cccc(C(=O)Nc2cccnc2)n1"
  Class Assignment: "Not met"
- Molecule: "Cn1c(/C=C/c2cn(Cc3ccccc3)c3ccccc23)nc2ccccc2c1=O"
  Class Assignment: "Met"
- Molecule: "COc1cccc(N=Cc2c(O)n(-c3cc(OC)ccc3OC)c(=O)[nH]c2=O)c1"
  Class Assignment: "Not met"
- Molecule: "Cc1ccc(CN2CCN(/N=C/c3ccc(C(=O)O)cc3)CC2)cc1"
  Class Assignment: "Met"
- Molecule: "COc1ccc(C2=N/C(=C/c3ccc(F)cc3)C(=O)N2c2ccc(O)cc2)cc1"
  Class Assignment: "Not met"
- Molecule: "CN(C)c1ccc(CC2(CC(=O)c3ccccc3)C(=O)c3ccccc3C2=O)cc1"
  Class Assignment: "Not met"
- Molecule: "O=C(Cn1cc(/C=C2/C(=O)NC(=O)N(c3cccc(F)c3)C2=O)c2ccccc21)Nc1ccccc1"
  Class Assignment: "Met"
- Molecule: "Cn1cc(/C=C/c2nc3ccccc3c(=O)n2Cc2ccccc2)c2ccccc21"
  Class Assignment: "Met"
- Molecule: "Cc1ccc(S(=O)(=O)NN2C(=O)/C(=C/c3ccc(F)cc3)SC2=S)cc1"
  Class Assignment: "Not met"
- Molecule: "Cc1ccc(-c2csc(NC(=O)C3C4CCC(C4)C3C(=O)O)n2)c(C)c1 (stereo not drawn)"
  Class Assignment: "Not met"
- Molecule: "c1ccc2c(c1)nc(N1CCOCC1)c1ccccc12"
  Class Assignment: "Not met"
- Molecule: "Cn1c(/C=C/c2ccc([N+](=O)[O-])cc2)nc2ccccc2c1=O"
  Class Assignment: "Not met"
- Molecule: "c1ccc(-c2nc(N3CCOCC3)nc3ccccc23)cc1"
  Class Assignment: "Not met"
- Molecule: "COc1ccc(C=C2C(=O)N(c3ccccc3)C(=S)N(c3ccccc3)C2=O)c(OC)c1"
  Class Assignment: "Met"
- Molecule: "O=c1c2ccccc2nc(/C=C/c2ccc([N+](=O)[O-])cc2)n1Cc1ccccc1"
  Class Assignment: "Met"
- Molecule: "O=C(O)c1ccc(CN2CCOCC2)cc1"
  Class Assignment: "Met"
- Molecule: "COc1ccc(OC)c(N=Cc2c(O)n(-c3ccccc3Cl)c(=O)[nH]c2=O)c1"
  Class Assignment: "Met"
- Molecule: "O=C(CCc1ccccc1)Nc1ccc(Br)cc1"
  Class Assignment: "Not met"
- Molecule: "COc1ccc(/C=C2/SC(=O)N(c3ccccc3)C2=O)c(OC)c1"
  Class Assignment: "Not met"
- Molecule: "CC(=O)N/C(=C\\c1ccccc1)C(=O)NC(CC(C)C)C(=O)O (stereo not drawn)"
  Class Assignment: "Not met"
- Molecule: "COc1ccc(N(CC(=O)N2CCN(c3ccccc3OC)CC2)S(=O)(=O)c2ccccc2)c(OC)c1"
  Class Assignment: "Not met"
- Molecule: "NC(=S)N/N=C/c1cccn1-c1ccc([N+](=O)[O-])cc1"
  Class Assignment: "Not met"
- Molecule: "Cc1cc(/C=C2\\C(=O)NC(=O)N(c3cccc(F)c3)C2=O)c(C)n1C"
  Class Assignment: "Met"
- Molecule: "COc1ccccc1N=Cc1c(O)n(-c2ccccc2Cl)c(=O)[nH]c1=O"
  Class Assignment: "Not met"
- Molecule: "O=C(/C=C/c1ccc(-c2ccc([N+](=O)[O-])cc2)o1)c1cc2ccccc2o1"
  Class Assignment: "Met"
- Molecule: "Cc1ccc(OCCNc2cc(Cl)ccc2[N+](=O)[O-])cc1C"
  Class Assignment: "Not met"
- Molecule: "O=C(Cn1cc(/C=C2\\SC(=O)NC2=O)c2ccccc21)Nc1ccccc1"
  Class Assignment: "Not met"
- Molecule: "O=C(NCCO)/C(=C/c1cccc([N+](=O)[O-])c1)NC(=O)c1cccs1"
  Class Assignment: "Not met"
- Molecule: "CCOC(=O)C1=C(C)NC2=C(C(=O)CC(C)(C)C2)C1c1ccc(OC(F)F)cc1 (stereo not drawn)"
  Class Assignment: "Not met"
- Molecule: "COCCc1nnc(NC(=O)Cc2ccccc2)s1"
  Class Assignment: "Not met"
- Molecule: "O=c1c2ccccc2nc(/C=C/c2cccc([N+](=O)[O-])c2)n1Cc1ccccc1"
  Class Assignment: "Met"
- Molecule: "COc1ccc(-c2ccc(/C=C/C(=O)c3cc4ccccc4o3)o2)cc1"
  Class Assignment: "Not met"
- Molecule: "O=C(Cn1cc(/C=C2/C(=O)NC(=O)N(c3cccc(Cl)c3)C2=O)c2ccccc21)Nc1ccccc1"
  Class Assignment: "Met"
- Molecule: "CC1=C(C(=O)Nc2ccccc2)C(c2ccccc2Br)NC(=S)N1 (stereo not drawn)"
  Class Assignment: "Not met"
- Molecule: "CC(C)c1ccc(/C=C2/SC(=O)N(c3ccccc3)C2=O)cc1"
  Class Assignment: "Not met"
- Molecule: "C#CCOC(=O)/C(=C/c1ccc(F)cc1)NC(C)=O"
  Class Assignment: "Not met"
- Molecule: "Oc1ccc(/C=N/Nc2nc3ccccc3s2)c(O)c1"
  Class Assignment: "Met"
- Molecule: "Cn1c(/C=C/c2cn(C)c3ccccc23)nc2ccccc2c1=O"
  Class Assignment: "Met"
- Molecule: "COc1cc(/C=N/NC(=O)CSCc2ccc([N+](=O)[O-])cc2)cc(OC)c1OC"
  Class Assignment: "Not met"
- Molecule: "COc1ccc(C2=N/C(=C/c3ccccc3OC)C(=O)N2c2ccccc2)cc1"
  Class Assignment: "Not met"
- Molecule: "COc1ccc(N=Cc2c(O)n(-c3cc(OC)ccc3OC)c(=O)[nH]c2=O)cc1"
  Class Assignment: "Met"
- Molecule: "O=[N+]([O-])c1ccc(F)c(NS(=O)(=O)c2cc(Cl)ccc2Cl)c1"
  Class Assignment: "Not met"
